Measured TGI of individual entries
test system: UO-31 renal; assay: NCI tumour cell line growth inhibition, 48 h

>  <compound>
CCOC(=O)c1c(C)cc(=O)n2c1[nH]c1ccccc12

>  <testTarget>
UO-31 renal

>  <TGI>
> 100 µM

$$$$
>  <compound>
CCn1cc(-c2ccnc3[nH]ccc23)c(-c2cccc(NC(=O)Nc3ccc(OCc4ccccc4)cc3)c2)n1

>  <testTarget>
UO-31 renal

>  <TGI>
> 25 µM

$$$$
>  <compound>
CC(=O)C1C(=O)NC(=O)C1=O (stereo unspecified)

>  <testTarget>
UO-31 renal

>  <TGI>
> 100 µM

$$$$
>  <compound>
COC(=O)c1cccc(N[C@@H]2c3cc4c(cc3C(c3cc(OC)c(O)c(OC)c3)[C@H]3C(=O)OCC32)OCO4)c1 (stereo partly specified)

>  <testTarget>
UO-31 renal

>  <TGI>
11.7 µM

$$$$

In plain terms, C=C(C)C1CC/C(C)=C/CC[C@]2(C)O[C@H]2CC/C(COC(C)=O)=C\[C@@H]1O (stereo partly specified) has a documented TGI of > 50 µM

Value of TGI reported for the compound CN(CC#N)C1CCCC[C@H]1O (stereo partly specified) is > 100 µM

----------
tested on: SF-268 CNS; experiment: NCI tumour cell line growth inhibition, 48 h
endpoint: TGI

Recorded TGI, per entry:
>  <molecule>
CC(=O)Oc1cc2c(c3ncccc13)OC(C)(C)C2

>  <TGI>
25.9 µM

$$$$
>  <molecule>
COP(=O)(Cc1ccccc1)Cc1ccccc1

>  <TGI>
> 100 µM

$$$$
>  <molecule>
Nc1ccccc1NC(=O)c1ccc(CCCC(=O)Nc2ccc(C3CC3N)cc2)cc1 (stereo not given)

>  <TGI>
23 µM

$$$$

Kindly note: SF-268 CNS, CC(=O)O[C@H]1CCC2[C@@H]3CCC4=C(O)C(=O)C(C#N)C[C@]4(C)C3CC[C@@]21C (stereo not given in full) , TGI value reported: > 100 µM

Considering O=C(CC1(O)C(=O)Nc2ccccc21)c1ccco1 (stereo not given) , its TGI with SF-268 CNS was recorded as > 100 µM

Per the reported SF-268 CNS data, N#CSc1c[nH]c2ccc(/C=C/C(=O)/C=C(/C=C/c3ccc4[nH]cc(SC#N)c4c3)OB(F)F)cc12 has TGI of 2.8 µM

Value (TGI, SF-268 CNS) for record C[C@@H](CN1CC(=O)NC(=O)C1)N1CC(=O)NC(=O)C1 = 1160 µM

----------
tested on: SNB-78 CNS; experiment: NCI tumour cell line growth inhibition, 48 h
endpoint: TGI

>  <compound>
Clc1ccccc1C1=NN(c2ccccc2)C2c3ccccc3OCC12 (stereo not given)

>  <recordedMeasurement>
> 100 µM

$$$$
>  <compound>
CN(C)/N=C(/c1nc2ccc([N+](=O)[O-])cc2[nH]c1=O)C(O)c1ccco1 (stereo not given)

>  <recordedMeasurement>
> 100 µM

$$$$
>  <compound>
CC(=O)O[C@H]1CCC2[C@@H]3CCC4=C(O)C(=O)C(C#N)C[C@]4(C)C3CC[C@@]21C (stereo not given in full)

>  <recordedMeasurement>
> 100 µM

$$$$
>  <compound>
CC(C)C1CC2C(=O)N(c3ccccc3)C(=O)C2c2[nH]c3ccccc3c21 (stereo not given)

>  <recordedMeasurement>
77.3 µM

$$$$

The measured TGI associated with CN(C)CCSc1cccc(-c2cc(-c3cccc(SCCN(C)C)c3)nc(SCCN(C)C)n2)c1 reads 6.25 µM

The recorded TGI for O=c1cc(-c2ccccc2)oc2cc(O)cc(O)c12 is 92.5 µM

Please fill in: TGI reported for O=C(O)/C(Cl)=C(\Cl)C(=O)NC1C2CC3CC(C2)CC1C3 (stereo not given) = > 100 µM

The value of TGI measured for the compound CCNc1nnc(-c2nsc3ccccc23)s1 turned out to be > 100 µM

The recorded TGI for CCN1C[C@]2(C)CC[C@H](OC)C34C1C([C@H](OC(C)=O)[C@@H]32)[C@@]1(OC)C[C@H](OC)[C@H]2C[C@@H]4[C@@H]1[C@H]2O is > 100 µM

Sure, the documented TGI for Cc1nc(-c2ccccc2)cc2c1c(=O)oc1ccccc12 is > 100 µM
